Each recorded value in this set is attributed to PubChem BioAssay AID602194.

- TARGET DESC: Mu-type opioid receptor (Homo sapiens) + Delta-type opioid receptor (Homo sapiens) (UniProt P35372+P41143)
- Sequence (P35372 whole entry, looked up): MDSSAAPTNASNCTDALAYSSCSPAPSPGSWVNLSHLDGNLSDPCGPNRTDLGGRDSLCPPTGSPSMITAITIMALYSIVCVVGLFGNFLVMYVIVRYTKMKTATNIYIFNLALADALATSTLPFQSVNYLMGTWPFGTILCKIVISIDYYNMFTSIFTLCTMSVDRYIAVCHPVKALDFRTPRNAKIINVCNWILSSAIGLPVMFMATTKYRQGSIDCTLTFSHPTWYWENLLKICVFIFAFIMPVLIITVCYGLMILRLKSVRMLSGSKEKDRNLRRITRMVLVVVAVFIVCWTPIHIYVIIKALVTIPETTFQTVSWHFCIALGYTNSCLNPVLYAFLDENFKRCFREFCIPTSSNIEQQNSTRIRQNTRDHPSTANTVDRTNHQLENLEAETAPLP
- Sequence (P41143 whole entry, looked up): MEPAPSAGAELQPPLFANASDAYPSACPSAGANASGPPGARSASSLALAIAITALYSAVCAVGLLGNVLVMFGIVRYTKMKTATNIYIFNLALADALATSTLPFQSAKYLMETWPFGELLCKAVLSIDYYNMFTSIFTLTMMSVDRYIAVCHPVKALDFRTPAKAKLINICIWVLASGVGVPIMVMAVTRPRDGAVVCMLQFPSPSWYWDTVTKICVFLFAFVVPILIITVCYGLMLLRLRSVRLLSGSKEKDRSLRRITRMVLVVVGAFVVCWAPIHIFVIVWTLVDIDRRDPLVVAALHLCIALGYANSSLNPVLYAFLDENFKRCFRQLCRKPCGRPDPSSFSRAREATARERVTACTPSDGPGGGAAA
- RUN DESCRIPTION: OPRM1-OPRD1 heterodimer beta-arrestin recruitment activators – cell-based, luminescence, counter-screen for MC4R biased agonist project (AID 602194);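 also: 100% = deltorphin B at 0.9 µM final and 0% = DMSO alone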
- RUN CONDITIONS: U2OS PathHunter beta-arrestin, beta-gal luminescence; at 9.2 µM; active compounds read high; percent of deltorphin B response, DMSO zero
Out of some 2,400 compounds screened, about 140 (5.8%) were called active. Not all results are given here.
Quick rule: activation of at least 7% means yes (1), below that means no (0).

{"columns": ["SMILES STR", "CAT"],
 "data": [
  ["CCCCNc1c(-c2cccc(Sc3ccc(OC)cc3)c2)nc2ccccn12", "no (0)"],
  ["Cc1ccc(CCC(=O)Nc2ncc(Cc3cc(Cl)ccc3Cl)s2)o1", "yes (1)"],
  ["Cc1ccc([C@H]2C[C@H](O)[C@@H](n3cc(COC(=O)c4ccccc4)nn3)CN2C(=O)C2CCCCC2)cc1", "no (0)"]
]}

// query In plain terms: is recorded activation at least 7% for CSc1nc2sc3c(c2c(=O)[nH]1)CCc1ccccc1-3 ?
// result yes (1)

// query In plain terms: is recorded activation at least 7% for CC(C)Oc1c(Br)cc(Br)cc1/C=N/NC(N)=S ?
// result yes (1)

// query In plain terms: is recorded activation at least 7% for Cc1ccc(C(=O)Nc2ccc(NC(=O)c3cccs3)cc2)c(C)c1 ?
// result no (0)

// query In plain terms: is recorded activation at least 7% for Cc1cccc(NC(=O)Nc2cccc(Oc3c(F)c(F)c(F)c(F)c3F)c2)c1 ?
// result no (0)

// query In plain terms: is recorded activation at least 7% for Cc1c(-c2ccccc2)n[nH]c1C(=O)N=Nc1c(O)[nH]c2ccccc12 ?
// result yes (1)
